Record set of pIC50 for target or system Acetylcholinesterase (Bos taurus, UniProt P23795).
One number for each entry, as −log10 of the molar value.

- SMILES_DATA: "c1cc(C[n+]2ccc(N3CCc4ccccc4C3)cc2)cc(C[n+]2ccc(N3CCc4ccccc4C3)cc2)c1"
  pIC50: 6.55

Parameter requested: pIC50. Apply to each item below.
1. CN(c1ccc(Cl)cc1)c1cc[n+](Cc2ccc(-c3ccc(C[n+]4ccc(N(C)c5ccc(Cl)cc5)cc4)cc3)cc2)cc1
2. Nc1cc[n+](Cc2ccc(CCc3ccc(C[n+]4ccc(N)c5ccccc54)cc3)cc2)c2ccccc12
3. c1cc(C[n+]2ccc(N3CCCC3)cc2)ccc1CCCCc1ccc(C[n+]2ccc(N3CCCC3)cc2)cc1

1: 5.51; 2: 6.17; 3: 6.98
